# protocol notes: Cytotoxicity against human SH-SY5Y cells assessed as cell viability at 30 uM after 24 hrs by MTT assay relative to control
# Type: cell-based
# settings: read-out: Activity
property label: viability at 24 h, 30 µM (%)
One number for each entry, in %.

Answered examples (5):
| compound | viability at 24 h, 30 µM, % |
| --- | --- |
| Nc1nccc(-c2cn(C(=O)N3CCOCC3)c3ccccc23)n1 | 97.3 |
| Cc1ccsc1C(=O)n1cc(-c2ccnc(N)n2)c2ccccc21 | 82 |
| CC(=O)Nc1ccc(S(=O)(=O)n2cc(-c3ccnc(N)n3)c3cc(Br)ccc32)cc1 | 71.6 |
| Nc1nccc(-c2cn(S(=O)(=O)c3ccc4c(c3)OCCO4)c3ccccc23)n1 | 59.4 |
| Nc1nccc(-c2cn(S(=O)(=O)c3cccc(C(F)(F)F)c3)c3ccccc23)n1 | 76.1 |

Would you mind listing viability at 24 h, 30 µM for each of the following compounds?
1. Nc1nccc(-c2cn(S(=O)(=O)c3cc(C(F)(F)F)cc(C(F)(F)F)c3)c3ccc(Br)cc23)n1
2. Nc1nccc(-c2cn(S(=O)(=O)c3ccc(C(F)(F)F)cc3[N+](=O)[O-])c3ccc(Br)cc23)n1
3. Nc1nccc(-c2cn(Cc3ccc(Cl)s3)c3ccc(Br)cc23)n1

Ans:
76.4
15.2
24

Would you mind listing viability at 24 h, 30 µM for each of the following compounds?
1. O=C1NC(c2c[nH]c3ccccc23)Nc2ccccc21 (stereo not given)
2. CCOc1ccccc1C(=O)n1cc(-c2ccnc(N)n2)c2ccccc21

Ans:
83.1
46.6

* * *

# protocol notes: Cytotoxicity against human SH-SY5Y cells assessed as cell viability at 30 uM after 24 hrs by MTT assay relative to control
# Type: cell-based
# settings: read-out: Activity
property label: viability at 24 h, 30 µM (%)
One number for each entry, in %.

Answered examples (9):
| compound | value reported |
| --- | --- |
| Nc1nccc(-c2cn(Cc3ccc(Cl)s3)c3ccccc23)n1 | 115 |
| Nc1nccc(-c2cn(Cc3c4ccccc4cc4ccccc34)c3ccccc23)n1 | 96 |
| COc1ccc(S(=O)(=O)n2cc(-c3ccnc(N)n3)c3ccccc32)cc1 | 58.8 |
| Nc1nccc(-c2cn(S(=O)(=O)c3ccc([N+](=O)[O-])cc3)c3ccccc23)n1 | 56 |
| Nc1nccc(-c2cn(C(=O)N3CCOCC3)c3ccc(Br)cc23)n1 | 87 |
| Cc1c(C)c(C)c(S(=O)(=O)n2cc(-c3ccnc(N)n3)c3cc(Br)ccc32)c(C)c1C | 107 |
| Nc1nccc(-c2cn(S(=O)(=O)c3ccc(OC(F)(F)F)cc3)c3ccc(Br)cc23)n1 | 74 |
| O=c1[nH]c(-c2c[nH]c3ccc(I)cc23)nc2ccccc12 | 24 |
| Nc1nccc(-c2cn(S(=O)(=O)c3ccc(Cl)cc3Cl)c3ccccc23)n1 | 55.4 |

Please find the next compound below.
For reference, reported viability at 24 h, 30 µM for O=C1NC(c2c[nH]c3ccc(Br)cc23)Nc2ccccc21 (stereo not given) stands at 41.5

* * *

# system under test: Dual specificity tyrosine-phosphorylation-regulated kinase 1A (Homo sapiens, UniProt Q13627)
property label: pIC50
Answers are plain numbers, as −log10 of the molar value.

For reference, reported pIC50 for Nc1nccc(-c2cn(C(=O)N3CCOCC3)c3ccc(Br)cc23)n1 stands at 6.30

* * *

# protocol notes: Cytotoxicity against human SH-SY5Y cells assessed as cell viability at 30 uM after 24 hrs by MTT assay relative to control
# Assay type: cell-based
# settings: read-out: Activity
Assignment: determine reported viability at 24 h, 30 µM for the given compounds.

Would you mind listing viability at 24 h, 30 µM for each of the following compounds?
1. Cc1noc(C)c1Cn1cc(-c2ccnc(N)n2)c2ccccc21
2. Nc1nccc(-c2cn(S(=O)(=O)c3ccc(Br)cc3)c3ccccc23)n1
3. COc1ccc(S(=O)(=O)n2cc(-c3ccnc(N)n3)c3ccccc32)cc1OC

Ans:
["88.5%", "91.4%", "127%"]

Would you mind listing viability at 24 h, 30 µM for each of the following compounds?
1. Cc1cc(C)c(S(=O)(=O)n2cc(-c3ccnc(N)n3)c3cc(Br)ccc32)c(C)c1
2. Nc1nccc(-c2cn(S(=O)(=O)c3ccc4ccccc4c3)c3ccccc23)n1
3. Nc1nccc(-c2cn(S(=O)(=O)c3cc(C(F)(F)F)cc(C(F)(F)F)c3)c3ccccc23)n1
4. Nc1nccc(-c2cn(S(=O)(=O)c3ccc([N+](=O)[O-])cc3)c3ccc(Br)cc23)n1

Ans:
["109%", "61.6%", "72.4%", "59%"]
